# Method Description: yeast display, Sf9 membrane polyspecificity reagent, FACS + sequencing; frameworks hold sequencing errors
Readout Label: polyreactivity (PSR sort gate)

QVQLVESGGGLVQAGGSLRLSCAASGLIYVGNAMGWYRQAPGKERELVAAISSRGGRTYYADSVKGRFTISRDNAKNSVYLQMNSLKPEDSAVYYCNAANSQWGFEYWGQGTQVTVSS = high polyreactivity
QVQLVESGGGLVQAGGSLRLSCAASGRTFFMYAMGRYRQAPGKERELVAAISWGGVSTYYADSVKGRFTISRDNAKNTVYLQMNSLKPEDTAVYYCNAEYYYPRGRYWYDYWGQGTQVTVSS = high polyreactivity
QVHLVESGGGLVQAGGSLRLSFAASGYTLSDNAMGWYRQAPGKERELVATIDFGGGSTYYADSVKGRFTISRDNAKNTVYLQRNSLKPEDTAVYYCNTEWTSLSTSSLGGRYDHWGQGTQVTVSS = low polyreactivity
QVQLVESGGGLVQSGGSLRLTCAASGRTFPYYAMGWYRQAPGKERELVAAISRRGGSTYYADSVKGRFTISRDNAMNTVYLQMNSLKPEDTAVYYCAAAGGVSGGEYDYWGQGTQVTVSS = high polyreactivity
QVQLLESGGRLVQAGGSLRLSCAASGSTYNQYDMGWYRQAPGKERELVAAISTNGGRTYYADSVKGRFTISRDNAKNTVYLLMNSLKPEYTAVYYCNRAGRGRWSNMDHWGQGTQVTVSS = high polyreactivity

Please state, for each entry, its recorded polyreactivity (PSR sort gate).
1. QVQIEESRGGLVQAGGSLRLSCAASGRIIDRYAMGWSRPAPRKERELVAAISSGGRTYYADSVKGRFTISRDNAKNTVYLQMHSLKPEDTAVYYCNAVAYSLSGYNSWGQGTQVTVSS
2. QVQLVESGGGLVQAGGSLRISCAASGSIFASNAMGWYRQAPGKEREFVAAITWRTDRTYYADSVKGRFTISRDNAKNTVYLQMNSLKPEDTAVYYCAADTWFYRFYYWGQGTQVTVSS
3. QVQLVESGGGLVQAGGSLRLSCAASGLTYSNAMGCYRQAPGKERELVAAISWRGGRTYYADSVKGRFTISRDNAKNTVYLQMNSLKPEDTAVYYCAKYAHGHKWYGYWGQGNQVTVSS

["high polyreactivity", "high polyreactivity", "low polyreactivity"]

Items follow; give polyreactivity (PSR sort gate) for each.
1. QVQLVESGGGLVQAGGSLRLSCAASGRTFFGYAMGWYRQAPGKERELVATISGSGASTYYADSVKGRFTISRDNAKNTVYLQMNSLKPEDTAVYYCAARYVTTRHSRYYYWGQGTQVTVSS
2. QVQLVESGGGLVQAGGSLRLSCAASGFIFWENAMGWSRQAPGKERELVAAISKSGTRTYYADSVKGRFTISRDNAKNTVYLQMNSLKPEDTAVYYCAAEGSGYEYYYWGQGTQVTVSS
3. QVQLVESGGGLVQAGGSLRLSCAASGSTYYNAMGWYRQAPGKERELVAAIRFRYGSTYYADSVKGRFTISRDNAKNSVYLQMNSLKPEDTAVYYCADDNKRSWRYAYNYWGHGTQVTVSS

high polyreactivity
high polyreactivity
high polyreactivity

---

# Method Description: yeast display, Sf9 membrane polyspecificity reagent, FACS + sequencing; frameworks hold sequencing errors
Readout Label: polyreactivity (PSR sort gate)

QVQLVESGGGLVQAGGSLRLSCAASGFTFDWNSMGCYRQAPGQERELVATIRWSVGSTYYADSVKGRFTISRDNAKNTVYLQMNSLKPEDTAVYYCAADSQWSYPDYPGEYAYDYWGQGTQVTVSS = low polyreactivity
QVQLVESGGGLDQAGGSLRLSCAASGSIFTQYAMGWYRQAPGKERELVAAITSGGSTYADSVKGRFTISRDNAKNTVYLQMNSLKPEDTAVYYCATPYSYRGVTFNYWGQGTLVTVSS = low polyreactivity
